Entry source: PubChem BioAssay AID1671190

measured on: Polyunsaturated fatty acid lipoxygenase ALOX12 (Homo sapiens)
measurement notes: Primary qHTS assay for inhibitors of human arachidonate 12S-lipoxygenase (ALOX12): Round 2
stated conditions: purified 12hLO, xylenol orange hydroperoxide absorbance; series mostly up to 108 µM
Out of some 580,000 compounds screened, about 6,100 (1.1%) were called active. Another 15% or so got no clear call; they are omitted. Calls come from the whole dose curve; as a rule, active = well fitted inhibition curve with a large enough effect; inconclusive = small, poorly fitted or top-dose-only effect, or another doubt; inactive = no such curve, though single readings can be large or run the other way. The entries come from a sample that favours actives as a whole.
Field 'call' accepts t (active), f (inactive)

Some solved cases for reference:
molecule	label value
COc1cc2c(cc1OCc1ccccc1)NC(=O)C21CCN(CCC(C)C)CC1	f
COC(=O)c1ccc(NC(=O)N2[C@H]3CC[C@@H]2c2cnc(-c4ccc(F)cc4)nc2C3)cc1	f
Cc1ccc(-n2c(/C=C/c3cccc(C(F)(F)F)c3)nc3ccccc3c2=O)cc1	f
O=c1c2ccccc2nc(/C=C/c2ccco2)n1-c1ccccc1O	t

Could you kindly confirm the outcome this assay logged for COc1ccccc1-c1ccc(N2CC3CC(C2)c2cccc(=O)n2C3)nn1 (centres undefined) ?
f

Call for entry `N#Cc1cccc(NC(=O)NC[C@H]2C[C@@H]3CCN2C[C@@H]3CN2CCN(c3ncccn3)CC2)c1` :
f

---

measured on: Polyunsaturated fatty acid lipoxygenase ALOX12 (Homo sapiens) (UniProt P18054)
Sequence (P18054 whole entry, looked up): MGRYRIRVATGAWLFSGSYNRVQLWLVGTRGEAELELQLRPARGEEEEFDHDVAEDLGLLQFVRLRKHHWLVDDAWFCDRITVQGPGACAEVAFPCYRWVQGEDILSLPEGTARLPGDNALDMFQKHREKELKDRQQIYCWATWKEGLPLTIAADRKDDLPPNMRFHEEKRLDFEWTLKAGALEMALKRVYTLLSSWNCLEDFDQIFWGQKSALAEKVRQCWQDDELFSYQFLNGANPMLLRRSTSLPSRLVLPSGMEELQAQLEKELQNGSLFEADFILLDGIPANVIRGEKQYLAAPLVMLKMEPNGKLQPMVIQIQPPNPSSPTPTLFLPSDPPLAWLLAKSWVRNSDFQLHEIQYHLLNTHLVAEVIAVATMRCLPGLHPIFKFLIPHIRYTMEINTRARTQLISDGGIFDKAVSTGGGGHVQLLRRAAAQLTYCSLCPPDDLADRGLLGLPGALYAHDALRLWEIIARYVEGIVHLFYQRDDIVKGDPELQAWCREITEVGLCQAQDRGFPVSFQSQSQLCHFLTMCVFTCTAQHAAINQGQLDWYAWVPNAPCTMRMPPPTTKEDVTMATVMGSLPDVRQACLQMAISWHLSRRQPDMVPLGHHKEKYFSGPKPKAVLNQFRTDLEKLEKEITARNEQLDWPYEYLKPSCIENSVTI
measurement notes: Primary qHTS assay for inhibitors of human arachidonate 12S-lipoxygenase (ALOX12): Round 2
stated conditions: purified 12hLO, xylenol orange hydroperoxide absorbance; series mostly up to 108 µM
About 6,100 (1.1%) of roughly 580,000 compounds were called active. About 15% were inconclusive and are not listed. Calls come from the whole dose curve; as a rule, active = well fitted inhibition curve with a large enough effect; inconclusive = small, poorly fitted or top-dose-only effect, or another doubt; inactive = no such curve, though single readings can be large or run the other way. This excerpt belongs to a sample that is enriched for actives.
Allowed answers: 1.0 for active, 0.0 for inactive

Completed entries (count: 3):
compound	measured on	label value
Cc1noc(C)c1CC(=O)N1[C@H]2CC[C@@H]1c1cnc(-c3ccccc3)nc1C2	Polyunsaturated fatty acid lipoxygenase ALOX12 (Homo sapiens) (UniProt P18054)	0.0
Cc1ccc(C(c2c(O)c3ccccc3oc2=O)c2c(O)c3ccccc3oc2=O)cc1	Polyunsaturated fatty acid lipoxygenase ALOX12 (Homo sapiens) (UniProt P18054)	1.0
CCC(=O)CC(c1ccc([N+](=O)[O-])cc1)c1c(O)c2ccccc2oc1=O (stereo not given)	Polyunsaturated fatty acid lipoxygenase ALOX12 (Homo sapiens) (UniProt P18054)	0.0

I would be grateful if you could indicate the recorded call for `O=c1oc2ccccc2c(O)c1C(c1ccccc1O)c1c(O)c2ccccc2oc1=O` .
0.0

How was `COC(=O)[C@@H]1[C@@H](CO)[C@@H]2Cn3c(ccc(Br)c3=O)[C@H]1N2C(=O)c1cnccn1` classified in this test?
0.0

---

measured on: Polyunsaturated fatty acid lipoxygenase ALOX12 (Homo sapiens) (UniProt P18054)
measurement notes: Primary qHTS assay for inhibitors of human arachidonate 12S-lipoxygenase (ALOX12): Round 2
stated conditions: purified 12hLO, xylenol orange hydroperoxide absorbance; series mostly up to 108 µM
About 6,100 (1.1%) of roughly 580,000 compounds were called active. Another 15% or so got no clear call; they are omitted. Calls follow the shape of the dose curve; as a rule, active = well fitted inhibition curve with a large enough effect; inconclusive = small, poorly fitted or top-dose-only effect, or another doubt; inactive = no such curve, though single readings can be large or run the other way. This excerpt belongs to a sample that is enriched for actives.
Outcome (select one): Yes (active), No (inactive)

compound	label value
C#C[C@H]1CN2CC[C@H]1C[C@@H]2CNC(=O)C1CC1	No

How did this test come out for Cc1noc(C(C)N2CCN(C(=O)Cc3ccccc3)CC2)n1 (stereo not given) ?
No

Returns: the outcome recorded for `Cc1ccc2c(n1)N(C)[C@H](CO)CCN(C1CCCC1)C2` in this assay.
No

For `COc1ccc(-c2cc([C@H]3CN4CC[C@H]3C[C@@H]4COC(=O)NC(C)C)nc(C)n2)cc1` , which call appears in the assay record?
No

Could you kindly confirm the outcome this assay logged for `C#C[C@H]1CN2CC[C@H]1C[C@@H]2COC(=O)Nc1cc(OC)cc(OC)c1` ?
Yes

---

measured on: Polyunsaturated fatty acid lipoxygenase ALOX12 (Homo sapiens)
measurement notes: Primary qHTS assay for inhibitors of human arachidonate 12S-lipoxygenase (ALOX12): Round 2
stated conditions: purified 12hLO, xylenol orange hydroperoxide absorbance; series mostly up to 108 µM
Out of some 580,000 compounds screened, about 6,100 (1.1%) were called active. Not shown: some 15% with an inconclusive outcome. This is one part of a sample in which actives are shown more often than they occur.
measured property: outcome

Cc1cc(C)c2[nH]c(C(=O)N3CCC(C#N)(c4ccccc4)CC3)c(C)c2c1 inactive
Cn1nc(-c2cccs2)cc1[C@H]1CN2CC[C@H]1C[C@@H]2CNC(=O)Nc1ccccc1 inactive
Cn1nc(-c2ccc(F)cc2)cc1[C@H]1CN2CC[C@H]1C[C@@H]2CNCc1ccccn1 inactive
